FYI, the data here is from patent US20220177446A1.

Listed next: entries and their corresponding pIC50.
Molecular target: IRAK4 (Homo sapiens)
Construct: host or cells: human peripheral blood mononuclear cells (PBMCs)
Assay: IRAK4 Human PBMC TNFα Cell Based Assay (AlphaLISA)
Conditions: human PBMCs stimulated by R848 (0.5 μM), 4 h; TNFα measured; read-out: IRAK4 PBMC AlphaLISA R848 (IC50)
When answering, recall that pIC50 equals minus log10 of the concentration in mol/L, and write that number alone.

Example results:
CC[C@@H]1[C@H](F)C(=O)N[C@@H]1COc1ncc(C#Cc2ncccn2)c2cc(C(N)=O)c(OC)cc12 ... 8.77
CC[C@@H]1[C@H](F)C(=O)N[C@@H]1COc1ncc(C#CC(=O)N(C)C)c2cc(C(N)=O)c(OC)cc12 ... 9.15
CC[C@@H]1[C@H](F)C(=O)N[C@@H]1COc1ncc(C#Cc2cn[nH]c2)c2cc(C(N)=O)c(OC)cc12 ... 8.52
CC[C@@H]1[C@H](F)C(=O)N[C@@H]1COc1ncc(C#C[C@H](C)O)c2cc(C(N)=O)c(OC)cc12 ... 8.60
CC[C@@H]1[C@H](F)C(=O)N[C@@H]1COc1ncc(C#CCOC)c2cc(C(N)=O)c(OC)cc12 ... 9.00

Kindly review the next compound as well.
Exercise: Reported pIC50, compound CC[C@@H]1[C@H](F)C(=O)N[C@@H]1COc1ncc(C#CC(C)(C)N(C)C)c2cc(C(N)=O)c(OC(C)C)cc12 : ____
Key: 7.44

====

Target: IRAK4 (Homo sapiens, UniProt Q9NWZ3)
Construct: host or cells: human peripheral blood mononuclear cells (PBMCs)
Sequence (Q9NWZ3 1-460): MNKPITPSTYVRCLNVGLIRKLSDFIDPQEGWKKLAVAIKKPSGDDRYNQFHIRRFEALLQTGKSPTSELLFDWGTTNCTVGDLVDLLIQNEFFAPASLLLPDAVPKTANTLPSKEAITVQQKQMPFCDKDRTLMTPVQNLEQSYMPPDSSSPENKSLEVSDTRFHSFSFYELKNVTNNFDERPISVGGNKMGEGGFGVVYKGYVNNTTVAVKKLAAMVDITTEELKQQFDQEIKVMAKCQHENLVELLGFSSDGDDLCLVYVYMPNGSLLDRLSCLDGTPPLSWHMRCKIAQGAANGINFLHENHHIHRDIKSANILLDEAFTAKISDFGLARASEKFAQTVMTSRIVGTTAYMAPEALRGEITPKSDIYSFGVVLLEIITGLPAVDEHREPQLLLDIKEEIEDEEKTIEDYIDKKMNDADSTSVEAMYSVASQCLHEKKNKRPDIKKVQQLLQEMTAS
Experiment: IRAK4 Human PBMC TNFα Cell Based Assay (AlphaLISA)
Details: human PBMCs stimulated by IL-1β (10 ng/ml), 24 h; TNFα measured; read-out: IRAK4 PBMC AlphaLISA IL-1β (IC50)
Listed next: entries and their corresponding IC50.
Express it in nM; write the number only.

Exercise: Reported IC50, compound CC[C@@H]1[C@H](F)C(=O)N[C@@H]1COc1ncc(C#Cc2cccnc2)c2cc(C(N)=O)c(OC)cc12 [Example 14] : ____
Key: 1.3

Exercise: Reported IC50, compound CC[C@@H]1[C@H](F)C(=O)N[C@@H]1COc1ncc(C#CC(C)(C)N(C)C)c2cc(C(N)=O)c(OC(C)C)cc12 [Example 35] : ____
Key: 110

Exercise: Reported IC50, compound CC[C@@H]1[C@H](F)C(=O)N[C@@H]1COc1ncc(C#CC(C)(C)N(C)C)c2cc(C(N)=O)c(OC)cc12 [Example 34] : ____
Key: 46

Exercise: Reported IC50, compound CC[C@@H]1[C@H](F)C(=O)N[C@@H]1COc1ncc(C#CC(C)(C)NC(=O)OC(C)(C)C)c2cc(C(N)=O)c(OC)cc12 [Example 1] : ____
Key: 18.1

Exercise: Reported IC50, compound CC[C@@H]1[C@H](F)C(=O)N[C@@H]1COc1ncc(C#CC(C)(C)O)c2cc(C(N)=O)c(OC(C)C)cc12 [Example 29] : ____
Key: 3.5

Exercise: Reported IC50, compound CC[C@@H]1[C@H](F)C(=O)N[C@@H]1COc1ncc(C#Cc2cnccn2)c2cc(C(N)=O)c(OC)cc12 [Example 13] : ____
Key: 1.3

Exercise: Reported IC50, compound CC[C@@H]1[C@H](F)C(=O)N[C@@H]1COc1ncc(C#CC(=O)N(C)C)c2cc(C(N)=O)c(OC)cc12 [Example 11] : ____
Key: 1

Exercise: Reported IC50, compound CC[C@@H]1[C@H](F)C(=O)N[C@@H]1COc1ccc(C#CCN(C)C)c2cc(C(N)=O)c(OC)cc12 [Example 15] : ____
Key: 1.3

Exercise: Reported IC50, compound CC[C@@H]1[C@H](F)C(=O)N[C@@H]1COc1ncc(C#Cc2cnn(C)c2)c2cc(C(N)=O)c(OC)cc12 [Example 17] : ____
Key: 1.5

====

Target: IRAK4 (Homo sapiens, UniProt Q9NWZ3)
Construct: host or cells: human peripheral blood mononuclear cells (PBMCs)
Test: IRAK4 Human PBMC TNFα Cell Based Assay (AlphaLISA)
Conditions: human PBMCs stimulated by R848 (0.5 μM), 4 h; TNFα measured; read-out: IRAK4 PBMC AlphaLISA R848 (IC50)
TEST READOUT: IC50 (nM)
Express it in nM; write the number only.

CC[C@@H]1[C@H](F)C(=O)N[C@@H]1COc1ncc(C#CC(C)(C)O)c2cc(C(N)=O)c(OC)cc12 ... 2.7
CC[C@@H]1[C@H](F)C(=O)N[C@@H]1COc1ncc(C#Cc2cccnc2)c2cc(C(N)=O)c(OC)cc12 ... 1.6
COc1cc2c(OC[C@@H]3CCC(=O)N3)ncc(C#Cc3ccc(C)cc3)c2cc1C(N)=O ... 150
CC[C@@H]1[C@H](F)C(=O)N[C@@H]1COc1ncc(C#CC(C)(C)N)c2cc(C(N)=O)c(OC)cc12 ... 16

Exercise: Reported IC50, compound CC[C@@H]1[C@H](F)C(=O)N[C@@H]1COc1ncc(C#Cc2ccncc2)c2cc(C(N)=O)c(OC)cc12 : ____
Key: 3.4

Exercise: Reported IC50, compound CC[C@@H]1[C@H](F)C(=O)N[C@@H]1COc1ncc(C#CC(C)(C)O)c2cc(C(N)=O)c(OC(C)C)cc12 : ____
Key: 6.7

Exercise: Reported IC50, compound CC[C@@H]1[C@H](F)C(=O)N[C@@H]1COc1ncc(C#CC(C)(C)C)c2cc(C(N)=O)c(OC)cc12 : ____
Key: 11

Exercise: Reported IC50, compound COc1cc2c(OC[C@@H]3CCC(=O)N3)ncc(C#CCN(C)C)c2cc1C(N)=O : ____
Key: 175

Exercise: Reported IC50, compound CC[C@@H]1[C@H](F)C(=O)N[C@@H]1COc1ncc(C#C[C@@H](C)O)c2cc(C(N)=O)c(OC)cc12 : ____
Key: 3

Exercise: Reported IC50, compound COCC#Cc1cnc(OC[C@@H]2CCC(=O)N2)c2cc(OC)c(C(N)=O)cc12 : ____
Key: 140

Exercise: Reported IC50, compound CC[C@@H]1[C@H](F)C(=O)N[C@@H]1COc1ncc(C#CC(C)(C)OC)c2cc(C(N)=O)c(OC)cc12 : ____
Key: 5.5

Exercise: Reported IC50, compound CC[C@@H]1[C@H](F)C(=O)N[C@@H]1COc1ccc(C#CCN(C)C)c2cc(C(N)=O)c(OC)cc12 : ____
Key: 1.7

====

Biological target: IRAK4 (Homo sapiens, UniProt Q9NWZ3)
Construct: host or cells: human peripheral blood mononuclear cells (PBMCs)
Sequence (Q9NWZ3 1-460): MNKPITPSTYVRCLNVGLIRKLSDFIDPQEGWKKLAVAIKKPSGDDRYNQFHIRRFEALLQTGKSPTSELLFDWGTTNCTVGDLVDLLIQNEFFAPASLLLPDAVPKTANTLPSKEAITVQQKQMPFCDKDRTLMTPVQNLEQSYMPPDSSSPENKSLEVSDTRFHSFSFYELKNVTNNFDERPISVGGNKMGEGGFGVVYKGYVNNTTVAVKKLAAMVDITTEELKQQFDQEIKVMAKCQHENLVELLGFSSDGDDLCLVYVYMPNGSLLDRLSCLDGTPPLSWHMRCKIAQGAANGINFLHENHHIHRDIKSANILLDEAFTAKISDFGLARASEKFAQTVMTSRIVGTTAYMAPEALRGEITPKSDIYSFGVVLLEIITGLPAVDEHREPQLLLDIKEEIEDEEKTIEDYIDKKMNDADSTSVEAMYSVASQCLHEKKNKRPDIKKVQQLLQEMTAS
Assay: IRAK4 Human PBMC TNFα Cell Based Assay (AlphaLISA)
Conditions: human PBMCs stimulated by IL-1β (10 ng/ml), 24 h; TNFα measured; read-out: IRAK4 PBMC AlphaLISA IL-1β (IC50)
TEST READOUT: pIC50
When answering, recall that pIC50 equals minus log10 of the concentration in mol/L, and write that number alone.

Example results:
CC[C@@H]1[C@H](F)C(=O)N[C@@H]1COc1ncc(C#Cc2ccncc2)c2cc(C(N)=O)c(OC)cc12 [Example 22] ... 9.10
CC[C@@H]1[C@H](F)C(=O)N[C@@H]1COc1ncc(C#Cc2nnn(C)n2)c2cc(C(N)=O)c(OC)cc12 [Example 21] ... 8.34
CC[C@@H]1[C@H](F)C(=O)N[C@@H]1COc1ncc(C#Cc2ccccc2)c2cc(C(N)=O)c(OC)cc12 [Example 27] ... 8.74
CC[C@@H]1[C@H](F)C(=O)N[C@@H]1COc1ncc(C#CC(C)(C)N)c2cc(C(N)=O)c(OC)cc12 [Example 2] ... 7.60
CC[C@@H]1[C@H](F)C(=O)N[C@@H]1COc1ccc(C#CC(C)(C)O)c2cc(C(N)=O)c(OC)cc12 [Example 31] ... 8.25
CC[C@@H]1[C@H](F)C(=O)N[C@@H]1COc1ncc(C#CC(C)(C)C)c2cc(C(N)=O)c(OC)cc12 [Example 32] ... 7.77

Exercise: Item CC[C@@H]1[C@H](F)C(=O)N[C@@H]1COc1ncc(C#CCN(C)C)c2cc(C(N)=O)c(OC)cc12 [Example 5] with IRAK4 (Homo sapiens, UniProt Q9NWZ3) - pIC50?
Key: 8.66
